assay: Novel Modifiers of Survival Motor Neuron (SMN) Protein: Gene Identification via Genome-wide siRNA Screen; details: HEK293T SMN2-luciferase reporter, siRNA knockdown, 72 h; actives lie on both sides;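 note: luminescence tracks full-length SMN protein made from the SMN2 reporter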
Out of some 31,000 sequences screened, about 1,400 (4.5%) were called active. The full list was thinned out, with actives kept by preference.
Kind request: treat 0.2 as inclusive, so median seed-adjusted z-score at 0.2 or higher is Met, anything lower is Not met.

sequence | class assignment
CCGUCAAGGUGUAUUUUGATT against PPIB | Not met
GCACGAAUGAGGACGAUGATT against SPRY4 | Not met
GCGACCAACUGAUUGUCGATT against PTPRZ1 | Met
CCAACCUUCUGAAUACGUUTT against GPR126 | Not met
GCUGCUGAAAGAUAUGAAATT against SPCS3 | Met
CACUAUCUAUUCCACCUUUTT against HTR1A | Not met
GCCCGACUCUCUAAUGGAATT against PRKD3 | Not met
GCACCUUCCCAACCAUCAATT against GPX2 | Not met
GAAUCCGGAUGAGUACUAUTT against PHF17 | Met
CUGCAGCUUUUAUCACAAATT against SLC25A33 | Not met
GGAUGAGCAGUACCAGGCATT against PYCARD | Not met
GCAAAUCAGAGGUUCAGAUTT against SQLE | Not met
AGAUCGACAAGAUGCAAGATT against FOXN1 | Met
CCACGUGUUUCAAAGCAGATT against GPR172B | Not met
GAACUUGACCAGUUAGACUTT against GTF3C3 | Met
GGAGAACCAGUGGAAUUCATT against LIN28B | Met
CCGCCCAAGUAGUAAAGAATT against ADCY3 | Not met
GAAUUGGAGAGCACCAAUATT against POLR2B | Not met
CCACGGCACAUGGAACUAATT against SLC7A14 | Not met
GGAGUUAAGAAUAUUAUGATT against VAMP8 | Not met
UGCUGACCUCGUUACCUUUTT against UCP3 | Met
CAUUAAAGCAGCUACCAAUTT against PSMC3IP | Not met
GCUUUGAGGAAAAUCCGAATT against SLC26A3 | Not met
CCACUGUUGGAAUUAAAGATT against AOAH | Not met
GAACCUCAAGAAUCGAACATT against REV1 | Not met
CUACGGCUUUGGAGAUAUATT against RECQL | Not met
GCUUUUACAACAUUUCGAATT against SLC30A4 | Not met
GAAGUCACGUCACUACUUATT against ZNF644 | Met
GACUACGACUGGUUCUUCATT against CSGLCA-T | Not met
GAUCGUUGCAAAGUUCUUATT against CPSF6 | Not met
CCUUUAGCACGGAUAGUUUTT against ACAT2 | Met
GCAGAUGUAUAAGAAGGCATT against RRM2 | Not met
GACUCUGAGUAUAAAGUGATT against BARHL1 | Met
GACUGUUCGUUUCCCAGAUTT against CHRNA7 | Not met
GGCUGUGCAUAAACGAGAATT against GTF2E1 | Met
AGAUGAUCGCUGAGUUCAATT against TNNC2 | Not met
CCAAUGCUGUGACUUUCGATT against KIFC3 | Met
GUCUUUAGCUGACCUGAAUTT against DMD | Not met
GAUUCUAGGAUAAGCACUATT against KLK8 | Met
GAAUUUUGUGGUUACACUATT against POLR1D | Not met
CACUAAUGGAUAUUGCCUATT against BMI1 | Not met
AUUUAUUUGUUGAGGUUAUTT against PIM3 | Not met
GGAUAGUGAGGAUAAGGAATT against PPP1R15A | Met
GGCUCUUCAUGGACCUUCATT against GPR173 | Not met
CCACCAAUGUAGUCUAUCATT against PAPSS2 | Not met
CCAUCAUGCUUGAUCGGGATT against SLC4A4 | Met
CCUCGUCGAUCGUGCAUCUTT against ADRA2C | Not met
GCAUAUAUCAAGAAUUCAATT against CLIC4 | Not met
ACAAGAUGACCAACACUAATT against ARHGAP1 | Not met
GCACUACGGACCAUAGUUATT against NRF1 | Met

Cited source: PubChem BioAssay AID1347426
